# Tested on: differentiated 3T3-L1 mouse adipocyte cells
# Experiment notes: Adipocyte glucose consumption in differentiated 3T3-L1 mouse adipocyte cells (loss of glucose from medium, colorimetric)
# Type: cell-based
# Condition context: compound 10 μM, 22 to 24 hours, differentiated 3T3-L1 adipocytes, compound/DMSO, read-out: Glucose consumption (fold change) Mean
Readout type: fold induction at 10 µM

CCCCCCC1CCCc2c(n(Cc3cccc(C#N)c3F)c3c(C(=O)O)cccc23)C1 (stereo not drawn) = 1.36
CCCCC1CCCc2c1c1cccc(C(=O)O)c1n2Cc1cccc(C(N)=O)c1 (stereo not drawn) = 1.35
CCCCC1CCCc2c(n(Cc3cccc(C)c3)c3c(C(=O)O)cccc23)C1 (stereo not drawn) = 1.32
CCCCCCC1CCc2c(n(Cc3ccccc3C)c3c(C(=O)O)cccc23)C1 (stereo not drawn) = 1.23
CCCCCC1CCCc2c1c1cccc(C(=O)O)c1n2Cc1cccc(C#N)c1 (stereo not drawn) = 1.13
CCCCCCC1CCCc2c(n(Cc3cncc(C#N)c3)c3c(C(=O)O)cccc23)C1 (stereo not drawn) = 1.06
CCCCCC1CCc2c(n(Cc3cccc(C(N)=O)c3)c3c(C(=O)O)cccc23)C1 (stereo not drawn) = 1.13
CCCCC1CCCc2c1c1cccc(C(=O)O)c1n2Cc1cccc(C#N)c1 (stereo not drawn) = 1.28
CCCCCC1CCCc2c1c1cccc(C(=O)O)c1n2Cc1cccc(C(N)=O)c1 (stereo not drawn) = 1.12
CCC1CCCc2c1n(Cc1cccc(C#N)c1)c1c(C(=O)O)cccc21 (stereo not drawn) = 1.11

### Prompt So what does the record say about fold induction at 10 µM for CCCCCC1CCCc2c(n(Cc3cccc(C(N)=O)c3)c3c(C(=O)O)cccc23)C1 (stereo not drawn) ?
### Response 1.27

====

# System: differentiated 3T3-L1 mouse adipocyte cells
# Experiment notes: Adipocyte glucose consumption in differentiated 3T3-L1 mouse adipocyte cells (loss of glucose from medium, colorimetric)
# Type: cell-based
# Condition context: compound 10 μM, 22 to 24 hours, differentiated 3T3-L1 adipocytes, compound/DMSO, read-out: Glucose consumption (fold change) Mean
Readout type: fold induction at 10 µM
Respond numerically, and do not add a unit to the figure.

CCCC1CCc2c(n(Cc3cccc(C(N)=O)c3)c3c(C(=O)O)cccc23)C1 (stereo not shown) = 1.09
CCC1CCc2c(n(Cc3cccc(C(=O)O)c3)c3c(C(=O)O)cccc23)C1 (stereo not shown) = 1.11
CCCCC1CCCCc2c1c1cccc(C(=O)O)c1n2Cc1cccc(C#N)c1 (stereo not shown) = 1.24
CCCCCC1CCc2c(n(Cc3cccc(C#N)c3)c3c(C(=O)O)cccc23)C1 (stereo not shown) = 1.34
CCCCC1CCCc2c(n(Cc3cccc(OC)c3)c3c(C(=O)O)cccc23)C1 (stereo not shown) = 1.23

### Prompt // fold induction at 10 µM lookup, key: CCCCC1CCCc2c(n(Cc3ccccc3C)c3c(C(=O)O)cccc23)C1 (stereo not shown)
### Response 1.12

### Prompt Same read-out for CCCCC1CCCc2c(n(Cc3ccc(C)cc3)c3c(C(=O)O)cccc23)C1 (stereo not shown) ?
### Response 1.27

### Prompt Record: CCCCC1CCCc2c(n(Cc3ccccc3C(N)=O)c3c(C(=O)O)cccc23)C1 (stereo not shown)
### Response 1.11

### Prompt Note, next up: CCCCCCC1CCCc2c(n(Cc3cccc(C#N)n3)c3c(C(=O)O)cccc23)C1 (stereo not shown)
### Response 1.28

### Prompt Let us now turn to CCCCCCC1CCCc2c(n(Cc3cccc(OC)c3)c3c(C(=O)O)cccc23)C1 (stereo not shown)
### Response 1.13
